Listed here: items and their measured EC50.
# Test system: HBV
# Test description: qPCR test in the HBV in vitro test (HBV DNA in HepG2.2.15 cells)
# Type: cell-based
# Condition info: Hepatitis B virus, 192 h, HBV DNA in HepG2.2.15 culture medium, day 8, read-out: Half maximal inhibitory concentration (EC50) of HBV
Property measured: EC50 (nM)

[[record]]
compound = "O=C(O)C[C@H]1CC[C@](NC(=O)C(=O)c2c(Cl)c(C(=O)Nc3cc(F)c(F)c(F)c3)c3n2CCC3)(C(F)(F)F)CC1"
system_tested = "HBV"
reading = 3

[[record]]
compound = "C[C@]1(NC(=O)C(=O)c2c(Cl)c(C(=O)Nc3cc(F)c(F)c(F)c3)c3n2CCC3)CC[C@H](CC(=O)O)CC1"
system_tested = "HBV"
reading = 4

[[record]]
compound = "CC1(NC(=O)C(=O)c2c(Cl)c(C(=O)Nc3cc(F)c(F)c(F)c3)c3n2CCC3)CCOCC1"
system_tested = "HBV"
reading = 2

[[record]]
compound = "COCC1(NC(=O)C(=O)c2c(Cl)c(C(=O)Nc3ccc(F)c(F)c3)c3n2CCC3)CCOCC1"
system_tested = "HBV"
reading = 4

[[record]]
compound = "O=C(O)C[C@H]1CC[C@@](NC(=O)C(=O)c2c(Cl)c(C(=O)Nc3cc(F)c(F)c(F)c3)c3n2CCC3)(C(F)(F)F)CC1"
system_tested = "HBV"
reading = 1

[[record]]
compound = "C[C@]1(NC(=O)C(=O)c2c(Cl)c(C(=O)Nc3ccc(F)c(F)c3)c3n2CCC3)CC[C@H](C(=O)O)CC1"
system_tested = "HBV"
reading = 20

[[record]]
compound = "Cc1c(C(=O)Nc2ccc(F)c(F)c2)c2n(c1C(=O)C(=O)NC1(C)CCOCC1)CCC2"
system_tested = "HBV"
reading = 5

[[record]]
compound = "CC1(NC(=O)C(=O)c2c(Br)c(C(=O)Nc3ccc(F)c(F)c3)c3n2CCC3)CCOCC1"
system_tested = "HBV"
reading = 9

[[record]]
compound = "CC1(NC(=O)C(=O)c2c(C(F)(F)F)c(C(=O)Nc3ccc(F)c(F)c3)c3n2CCC3)CCOCC1"
system_tested = "HBV"
reading = 41

[[record]]
compound = "CC1(NC(=O)C(=O)c2c(Cl)c(C(=O)Nc3ccnc(Cl)c3)c3n2CCC3)CCOCC1"
system_tested = "HBV"
reading = 30

[[record]]
compound = "N#CC1(NC(=O)C(=O)c2c(Cl)c(C(=O)Nc3ccc(F)c(F)c3)c3n2CCC3)CCC(CC(=O)O)CC1 (centres unmarked)"
system_tested = "HBV"
reading = 299

[[record]]
compound = "C[C@@H](NC(=O)C(=O)c1c(Cl)c(C(=O)Nc2ccnc(Cl)c2)c2n1CCC2)C(F)(F)F"
system_tested = "HBV"
reading = 70

[[record]]
compound = "C[C@]1(NC(=O)C(=O)c2c(Cl)c(C(=O)Nc3ccc(F)c(F)c3)c3n2CCC3)CC[C@@H](CC(=O)O)CC1"
system_tested = "HBV"
reading = 7

[[record]]
compound = "C[C@]1(NC(=O)C(=O)c2c(Cl)c(C(=O)Nc3ccc(F)c(F)c3)c3n2CCC3)CC[C@H](CCC(=O)O)CC1"
system_tested = "HBV"
reading = 14

